B1: NR2F2 (parent)
chain: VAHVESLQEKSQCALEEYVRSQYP

# Variants of: B1
# assay-method-text: protein stability index of a GFP-peptide fusion (GPS, HEK-293T) (PSI 1-6); higher = more stable;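 further: lentivirally expressed fusions sorted by FACS into six bins by GFP to DsRed ratio, PSI derived from sequencing read proportions per bin multiplied by bin number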
# conditions-used: c terminus: a fixed tail appended
measurement-name: protein stability index
Give only the figure.

Here is how some variants turned out for protein stability index.
>  <seq-string>
VAHVESLQEKSQCALEEYVRSQYH

>  <protein stability index>
3.33

$$$$
>  <seq-string>
VAHVESLQVKSQCALEEYVRSQYP

>  <protein stability index>
2.72

$$$$
>  <seq-string>
VAHVESLQEKSQCALEEYVTSQYP

>  <protein stability index>
3.72

$$$$
>  <seq-string>
VAHVESLQEKSQCALEEYVRSQRP

>  <protein stability index>
4.51

$$$$

Bench note: what protein stability index did VAQVESLQEKSQCALEEYVRSQYP show?
3.81

Here is the next variant: VAHVESLQEKSDCALEEYVRSQYP
4.32

Here is the next variant: VAHVESLQEKSQTALEEYVRSQYP
4.28

Here is the next variant: VAHVESLQEKSQCALEEPVRSQYP
4.43

Here is the next variant: VAHVESLQEKSQCALEEYVMSQYP
3.19

Here is the next variant: VAHVESLQEKSQCALEEYVRSVYP
3.5

Here is the next variant: VAHVESLQEKSQCALEEYVNSQYP
3.14

Here is the next variant: VAHVESLQEKSQCALKEYVRSQYP
3.7

Here is the next variant: VAHVEELQEKSQCALEEYVRSQYP
4.33
